- Test system: Bacillus subtilis
- Experiment Summary: Antibacterial activity by the agar cylinder plate method, Bacillus subtilis
- Assay type: cell-based
- Condition Notes: copper-containing compound, standard bleomycin A2 = 1,000 mcg potency/mg
This listing pairs compounds with measured Antibacterial titer of copper-compound.
Units required after the number.

Form field Antibacterial titer of copper-compound, entry CCCCCCCCCCN(CCCCCCCCCC)CCCCN(CCCCCCCCCC)CCCNC(=O)c1csc(-c2csc(CCNC(=O)C(NC(=O)C(C)C(O)C(C)NC(=O)C(NC(=O)c3nc(C(CC(N)=O)NCC(N)C(N)=O)nc(N)c3C)C(OC3OC(CO)C(O)C(O)C3OC3OC(CO)C(O)C(OC(N)=O)C3O)c3cnc[nH]3)C(C)O)n2)n1 (centres unmarked) : 75 mcg potency/mg

Form field Antibacterial titer of copper-compound, entry Cc1ccc(CN(CCCCN(Cc2ccc(C)cc2)Cc2ccc(C)cc2)CCCNC(=O)c2csc(-c3csc(CCNC(=O)C(NC(=O)C(C)C(O)C(C)NC(=O)C(NC(=O)c4nc(C(CC(N)=O)NCC(N)C(N)=O)nc(N)c4C)C(OC4OC(CO)C(O)C(O)C4OC4OC(CO)C(O)C(OC(N)=O)C4O)c4cnc[nH]4)C(C)O)n3)n2)cc1 (centres unmarked) : 203 mcg potency/mg

Form field Antibacterial titer of copper-compound, entry Cc1c(N)nc(C(CC(N)=O)NCC(N)C(N)=O)nc1C(=O)NC(C(=O)NC(C)C(O)C(C)C(=O)NC(C(=O)NCCc1nc(-c2nc(C(=O)NCCC[N+](C)(CCCCN(Cc3ccccc3)Cc3ccccc3)Cc3ccccc3)cs2)cs1)C(C)O)C(OC1OC(CO)C(O)C(O)C1OC1OC(CO)C(O)C(OC(N)=O)C1O)c1cnc[nH]1 (centres unmarked) : 832 mcg potency/mg

Form field Antibacterial titer of copper-compound, entry Cc1c(N)nc(C(CC(N)=O)NCC(N)C(N)=O)nc1C(=O)NC(C(=O)NC(C)C(O)C(C)C(=O)NC(C(=O)NCCc1nc(-c2nc(C(=O)NCCCN(CCCCN(Cc3ccccc3)Cc3ccccc3)Cc3ccccc3)cs2)cs1)C(C)O)C(OC1OC(CO)C(O)C(O)C1OC1OC(CO)C(O)C(OC(N)=O)C1O)c1cnc[nH]1 (centres unmarked) : 400 mcg potency/mg

Form field Antibacterial titer of copper-compound, entry CCCCCN(CCCCC)CCCCN(CCCCC)CCCNC(=O)c1csc(-c2csc(CCNC(=O)C(NC(=O)C(C)C(O)C(C)NC(=O)C(NC(=O)c3nc(C(CC(N)=O)NCC(N)C(N)=O)nc(N)c3C)C(OC3OC(CO)C(O)C(O)C3OC3OC(CO)C(O)C(OC(N)=O)C3O)c3cnc[nH]3)C(C)O)n2)n1 (centres unmarked) : 3520 mcg potency/mg

---

- Tested on: ICR mice
- Experiment Summary: Pulmonary toxicity (fibrosis of the lung) in mice
- Condition Notes: 5 mg/kg i.p. once daily for 10 days, autopsy after 5 weeks; scores 0, 1, 2, 4, 6 points; value in parentheses
This listing pairs compounds with measured Grade of pulmonary fibrosis (total score divided by total number of specimens).
API doc: respond with a numeric literal and nothing else, no unit.

{"columns": ["Compound", "Value Observed"],
 "data": [
  ["Cc1c(N)nc(C(CC(N)=O)NCC(N)C(N)=O)nc1C(=O)NC(C(=O)NC(C)C(O)C(C)C(=O)NC(C(=O)NCCc1nc(-c2nc(C(=O)NCCCN(CCCCN(Cc3ccc(OCc4ccccc4)c(OCc4ccccc4)c3)Cc3ccc(OCc4ccccc4)c(OCc4ccccc4)c3)Cc3ccc(OCc4ccccc4)c(OCc4ccccc4)c3)cs2)cs1)C(C)O)C(OC1OC(CO)C(O)C(O)C1OC1OC(CO)C(O)C(OC(N)=O)C1O)c1cnc[nH]1 (centres unmarked)", 0]
]}

Here is the next item to consider.
Form field Grade of pulmonary fibrosis (total score divided by total number of specimens), entry CCCCCCCCCCN(CCCCCCCCCC)CCCCN(CCCCCCCCCC)CCCNC(=O)c1csc(-c2csc(CCNC(=O)C(NC(=O)C(C)C(O)C(C)NC(=O)C(NC(=O)c3nc(C(CC(N)=O)NCC(N)C(N)=O)nc(N)c3C)C(OC3OC(CO)C(O)C(O)C3OC3OC(CO)C(O)C(OC(N)=O)C3O)c3cnc[nH]3)C(C)O)n2)n1 (centres unmarked) : 0

---

- Test system: ICR mice
- Experiment Summary: Pulmonary toxicity (fibrosis of the lung) in mice
- Condition Notes: 5 mg/kg i.p. once daily for 10 days, autopsy after 5 weeks; scores 0, 1, 2, 4, 6 points; value in parentheses
Quantity Name: Grade of pulmonary fibrosis (total score divided by total number of specimens)
API doc: respond with a numeric literal and nothing else, no unit.

// worked examples, Grade of pulmonary fibrosis (total score divided by total number of specimens) included
{"columns": ["Compound", "Value Observed"],
 "data": [
  ["Cc1ccc(CN(CCCCN(Cc2ccc(C)cc2)Cc2ccc(C)cc2)CCCNC(=O)c2csc(-c3csc(CCNC(=O)C(NC(=O)C(C)C(O)C(C)NC(=O)C(NC(=O)c4nc(C(CC(N)=O)NCC(N)C(N)=O)nc(N)c4C)C(OC4OC(CO)C(O)C(O)C4OC4OC(CO)C(O)C(OC(N)=O)C4O)c4cnc[nH]4)C(C)O)n3)n2)cc1 (stereo not drawn)", 0],
  ["Cc1c(N)nc(C(CC(N)=O)NCC(N)C(N)=O)nc1C(=O)NC(C(=O)NC(C)C(O)C(C)C(=O)NC(C(=O)NCCc1nc(-c2nc(C(=O)NCCC[N+](C)(CCCCN(Cc3ccccc3)Cc3ccccc3)Cc3ccccc3)cs2)cs1)C(C)O)C(OC1OC(CO)C(O)C(O)C1OC1OC(CO)C(O)C(OC(N)=O)C1O)c1cnc[nH]1 (stereo not drawn)", 0]
]}

Form field Grade of pulmonary fibrosis (total score divided by total number of specimens), entry Cc1c(N)nc(C(CC(N)=O)NCC(N)C(N)=O)nc1C(=O)NC(C(=O)NC(C)C(O)C(C)C(=O)NC(C(=O)NCCc1nc(-c2nc(C(=O)NCCCN(CCCCN(Cc3ccccc3)Cc3ccccc3)Cc3ccccc3)cs2)cs1)C(C)O)C(OC1OC(CO)C(O)C(O)C1OC1OC(CO)C(O)C(OC(N)=O)C1O)c1cnc[nH]1 (stereo not drawn) : 0

---

This listing pairs compounds with measured Incidence (%) of pulmonary fibrosis.
- Test system: ICR mice
- Experiment Summary: Pulmonary toxicity (fibrosis of the lung) in mice
- Condition Notes: 5 mg/kg i.p. once daily for 10 days, autopsy after 5 weeks of observation; percentage in parentheses
Just the number in %, nothing appended.

Form field Incidence (%) of pulmonary fibrosis, entry Cc1c(N)nc(C(CC(N)=O)NCC(N)C(N)=O)nc1C(=O)NC(C(=O)NC(C)C(O)C(C)C(=O)NC(C(=O)NCCc1nc(-c2nc(C(=O)NCCCN(CCCCN(Cc3ccc(Cl)cc3)Cc3ccc(Cl)cc3)Cc3ccc(Cl)cc3)cs2)cs1)C(C)O)C(OC1OC(CO)C(O)C(O)C1OC1OC(CO)C(O)C(OC(N)=O)C1O)c1cnc[nH]1 (stereo not drawn) : 0

Form field Incidence (%) of pulmonary fibrosis, entry Cc1c(N)nc(C(CC(N)=O)NCC(N)C(N)=O)nc1C(=O)NC(C(=O)NC(C)C(O)C(C)C(=O)NC(C(=O)NCCc1nc(-c2nc(C(=O)NCCCNCCCCN)cs2)cs1)C(C)O)C(OC1OC(CO)C(O)C(O)C1OC1OC(CO)C(O)C(OC(N)=O)C1O)c1c[nH]cn1 (stereo not drawn) [Compound A5, reference compound] : 50

Form field Incidence (%) of pulmonary fibrosis, entry CCCCCCCCCCN(CCCCCCCCCC)CCCCN(CCCCCCCCCC)CCCNC(=O)c1csc(-c2csc(CCNC(=O)C(NC(=O)C(C)C(O)C(C)NC(=O)C(NC(=O)c3nc(C(CC(N)=O)NCC(N)C(N)=O)nc(N)c3C)C(OC3OC(CO)C(O)C(O)C3OC3OC(CO)C(O)C(OC(N)=O)C3O)c3cnc[nH]3)C(C)O)n2)n1 (stereo not drawn) : 0

---

- Test system: Bacillus subtilis
- Experiment Summary: Antibacterial activity by the agar cylinder plate method, Bacillus subtilis
- Format: cell-based
- Condition Notes: copper-containing compound, standard bleomycin A2 = 1,000 mcg potency/mg
- Text: (1) Antibacterial activity against Mycobacterium smegmatis ATCC607 and Bacillus subtilis The above activity ws determined by the agar cylinder plate method using the above microorganisms.
Quantity Name: Antibacterial titer of copper-compound (mcg potency/mg)
Just the number in mcg potency/mg, nothing appended.

// worked examples, Antibacterial titer of copper-compound included
{"columns": ["Compound", "Antibacterial titer of copper-compound, mcg potency/mg"],
 "data": [
  ["Cc1c(N)nc(C(CC(N)=O)NCC(N)C(N)=O)nc1C(=O)NC(C(=O)NC(C)C(O)C(C)C(=O)NC(C(=O)NCCc1nc(-c2nc(C(=O)NCCC[N+](C)(C)CCCCN(Cc3ccccc3)Cc3ccccc3)cs2)cs1)C(C)O)C(OC1OC(CO)C(O)C(O)C1OC1OC(CO)C(O)C(OC(N)=O)C1O)c1cnc[nH]1 (stereo not drawn) [Compound 11]", 2528],
  ["Cc1c(N)nc(C(CC(N)=O)NCC(N)C(N)=O)nc1C(=O)NC(C(=O)NC(C)C(O)C(C)C(=O)NC(C(=O)NCCc1nc(-c2nc(C(=O)NCCCN(CCCCN(Cc3ccc(OCc4ccccc4)c(OCc4ccccc4)c3)Cc3ccc(OCc4ccccc4)c(OCc4ccccc4)c3)Cc3ccc(OCc4ccccc4)c(OCc4ccccc4)c3)cs2)cs1)C(C)O)C(OC1OC(CO)C(O)C(O)C1OC1OC(CO)C(O)C(OC(N)=O)C1O)c1cnc[nH]1 (stereo not drawn) [Compound 10]", 6]
]}

Here is the next item to consider.
Form field Antibacterial titer of copper-compound, entry Cc1c(N)nc(C(CC(N)=O)NCC(N)C(N)=O)nc1C(=O)NC(C(=O)NC(C)C(O)C(C)C(=O)NC(C(=O)NCCc1nc(-c2nc(C(=O)NCCCN(CCCCN(CC3CCCCCCC3)CC3CCCCCCC3)CC3CCCCCCC3)cs2)cs1)C(C)O)C(OC1OC(CO)C(O)C(O)C1OC1OC(CO)C(O)C(OC(N)=O)C1O)c1cnc[nH]1 (stereo not drawn) [Compound 6] : 61
